Test system: NCI-H1651
Assay Procedure: relative viability (nuclei count vs DMSO), 5 days (fraction); higher = more cells survive
Experimental Parameters: first compound 0.04 µM
Cut-off 0.8 on relative viability: below means Yes, at or above means No.

For orientation, consider the following solved cases.
Cc1sc2c(c1C)C(c1ccc(Cl)cc1)=N[C@@H](CC(=O)OC(C)(C)C)c1nnc(C)n1-2 [JQ1] + CC(=O)c1c(C)c2cnc(Nc3ccc(N4CCNCC4)cn3)nc2n(C2CCCC2)c1=O [Palbociclib] (partner 0.5 µM); Yes
Cc1sc2c(c1C)C(c1ccc(Cl)cc1)=N[C@@H](CC(=O)OC(C)(C)C)c1nnc(C)n1-2 [JQ1] + O=C(CCCCCCC(=O)Nc1ccccc1)NO [Vorinostat] (partner 1 µM); Yes

Criterion: relative viability strictly below 0.8. Is it met by Cc1sc2c(c1C)C(c1ccc(Cl)cc1)=N[C@@H](CC(=O)OC(C)(C)C)c1nnc(C)n1-2 [JQ1] + CC1(C)CCC(c2ccc(Cl)cc2)=C(CN2CCN(c3ccc(C(=O)NS(=O)(=O)c4ccc(N[C@H](CCN5CCOCC5)CSc5ccccc5)c(S(=O)(=O)C(F)(F)F)c4)cc3)CC2)C1 [Navitoclax] (partner 0.5 µM) ?
No

Now consider Cc1sc2c(c1C)C(c1ccc(Cl)cc1)=N[C@@H](CC(=O)OC(C)(C)C)c1nnc(C)n1-2 [JQ1] + NC(=O)Nc1cc(-c2cccc(F)c2)sc1C(=O)N[C@H]1CCCNC1 [AZD7762] (partner 0.2 µM) and answer again.
Yes

Similarly, Cc1sc2c(c1C)C(c1ccc(Cl)cc1)=N[C@@H](CC(=O)OC(C)(C)C)c1nnc(C)n1-2 [JQ1] + COc1cccc2cc(-c3nc([C@H]4CC[C@H](C(=O)O)CC4)n4ncnc(N)c34)[nH]c12 [OSI-027] (partner 0.5 µM) ?
Yes

Likewise for Cc1sc2c(c1C)C(c1ccc(Cl)cc1)=N[C@@H](CC(=O)OC(C)(C)C)c1nnc(C)n1-2 [JQ1] + COc1cc2c(Oc3ccc(NC(=O)C4(C(=O)Nc5ccc(F)cc5)CC4)cc3F)ccnc2cc1OCCCN1CCOCC1 [Foretinib] (partner 0.25 µM) ?
No

Lookup Cc1sc2c(c1C)C(c1ccc(Cl)cc1)=N[C@@H](CC(=O)OC(C)(C)C)c1nnc(C)n1-2 [JQ1] + CCNC(=O)c1noc(-c2cc(C(C)C)c(O)cc2O)c1-c1ccc(CN2CCOCC2)cc1 [Luminespib] (partner 0.01 µM)
No
